Reference source: ChEMBL document CHEMBL1132268

- System: Rat1
- MEASUREMENT_NOTES: Inhibition of v-Ha-ras (Ras2B) transformed RAT1 cell colony size and number in soft agar assay
- Assay type: functional
- EXPERIMENTAL_SETUP: Rattus norvegicus
# MIC listing for each entry below
Note: unit µM is implicit; provide only the numeric part.

1) COC(=O)[C@H](CCSC)NC(=O)c1cccc(CNCc2cncn2Cc2ccc(C#N)cc2)c1 :: 10

Note: attention shifts to another entry.
What measured MIC goes with `COC(=O)[C@H](CCSC)NC(=O)c1cccc(CN(Cc2ccc(C#N)cc2)Cc2c[nH]cn2)c1` ?
10

---

- TARGET: Protein farnesyltransferase (Homo sapiens, UniProt P49354+P49356)
- MEASUREMENT_NOTES: Inhibition of [3H]FPP incorporation into recombinant Ha-Ras by bovine brain farnesyltransferase
MEASUREMENT_LABEL: pIC50
Scale note: pIC50 = -log10(concentration in M).

1) CSCC[C@H](NC(=O)c1cccc(CN(Cc2ccc(C#N)cc2)Cc2cnc[nH]2)c1)C(=O)O :: 7.92

Now for another entry.
Fill in the blank: the reported pIC50 of `CSCC[C@H](NC(=O)c1cccc(CN(Cc2cnc[nH]2)Cc2cnc[nH]2)c1)C(=O)O` is ____.
6.06
